Procedure summary: Pharmacokinetics of ginsenosides after single oral RGE with or without amoxicillin treatment
Assay type: in vivo, mice
Condition context: male, ICR, mouse, plasma, po, 2 g/kg, Control; single oral RGE 2 g/kg; plasma; read-out: MRT
Quantity name: MRT (h)
Give the number; h is assumed, so skip it.

What the record says about CC(C)=CCC[C@](C)(O[C@@H]1O[C@H](CO[C@@H]2O[C@H](CO)[C@@H](O)[C@H](O)[C@H]2O)[C@@H](O)[C@H](O)[C@H]1O)[C@H]1CC[C@]2(C)[C@@H]1[C@H](O)C[C@@H]1[C@@]3(C)CC[C@H](O[C@@H]4O[C@H](CO)[C@@H](O)[C@H](O)[C@H]4O[C@@H]4O[C@H](CO)[C@@H](O)[C@H](O)[C@H]4O)C(C)(C)[C@@H]3CC[C@]12C [GRb1, 20(S)-ginsenosides Rb1] : MRT is 16.3

Cited source: paper PMC8469489
